# TESTED_ON: EGFR (d746-750 C797S) (Homo sapiens, UniProt P00533, C797S/DEL746-750)
# Construct: purchased signalchem
# Sequence (P00533 with tags, fused parts or gaps DEL746-750/C797S limits assumed): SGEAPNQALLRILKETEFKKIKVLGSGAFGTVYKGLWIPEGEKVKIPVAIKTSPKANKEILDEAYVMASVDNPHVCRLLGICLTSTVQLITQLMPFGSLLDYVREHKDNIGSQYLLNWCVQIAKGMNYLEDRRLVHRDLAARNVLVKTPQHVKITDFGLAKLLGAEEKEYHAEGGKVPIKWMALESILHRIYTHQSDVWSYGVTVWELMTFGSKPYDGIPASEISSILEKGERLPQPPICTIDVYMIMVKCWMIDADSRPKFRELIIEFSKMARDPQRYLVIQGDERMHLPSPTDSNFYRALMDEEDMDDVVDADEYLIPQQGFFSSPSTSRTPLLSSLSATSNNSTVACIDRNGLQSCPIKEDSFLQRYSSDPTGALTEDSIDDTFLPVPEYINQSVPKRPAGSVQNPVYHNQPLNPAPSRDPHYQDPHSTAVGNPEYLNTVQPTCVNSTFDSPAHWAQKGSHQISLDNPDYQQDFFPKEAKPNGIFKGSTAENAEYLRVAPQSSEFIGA
# TEST_PROTOCOL: Inhibition of EGFR (d746-750 C797S) biochemical enzymatic activity (HTRF)
# RECORDED_CONDITIONS: EGFR (d746-750 C797S), 1 mM ATP, 1 h at room temperature, read-out: IC50 @Del19-C797S
Listing of recorded IC50 by entry.
TEST_READOUT: IC50 (nM)

1) Cc1cc2cc(n1)-c1cnn(C)c1OCCN1CC3CCC(CC3)(C1)n1c(nc3ccc(N4CC5CCN(C)C5C4)cc31)NC2=O (stereo not shown) [Example B35]: 14
2) Cc1cc2cc(n1)-c1cnn(C)c1OCCN1CC3CCC(C3)(C1)n1c(nc3ccc(N4CCN(C)CC4)cc31)NC2=O (stereo not shown) [Example B9B]: 0.73
3) Cc1cc2cc(n1)-c1cnn(C)c1OCCN1CC3CCC(C3)(C1)n1c(nc3ccccc31)NC2=O (stereo not shown) [Example B8B]: 4.2
4) Cc1cc2cc(n1)-c1cnn(C)c1OCCN1CC3CCC(C3)(C1)n1c(nc3ccc(N4CCC5(CCN(C)C5)CC4)cc31)NC2=O (single isomer, unassigned) [Example B52A]: 2050
5) Cc1cc2cc(n1)-c1cnn(C)c1OCCN1CC3CCC(C3)(C1)n1c(nc3ccc(N4CCN(C)CC4)cc31)NC2=O (single isomer, unassigned) [Example B9A]: 454
6) Cc1cc2cc(n1)-c1cnn(C)c1OCCN1CC3CCC(CC3)(C1)n1c(nc3ccc(N4CCC5(CCN(C)CC5)C4)cc31)NC2=O [Example B31]: 15
7) Cc1cc2cc(n1)-c1cnn(C)c1OCCN1CC3CCC(C3)(C1)n1c(nc3ccc(N(C)CCN(C)C)cc31)NC2=O (single isomer, unassigned) [Example B47A]: 3460
8) Cc1cc2cc(n1)-c1cnn(C)c1OCCN1CC3CCC(C3)(C1)n1c(nc3ccc(N4CCOCC4)cc31)NC2=O (single isomer, unassigned) [Example B10B]: 1430
9) Cc1cc2cc(n1)-c1cnn(C)c1OCCN1CCOCC(C1)n1c(nc3ccccc31)NC2=O (stereo not shown) [Example B7B]: 322
10) Cc1cc2cc(n1)-c1cnn(C)c1OCCN1CC3CCC(CC3)(C1)n1c(nc3ccc(N4CC[C@@H](N(C)C)C4)cc31)NC2=O [Example B29]: 28
11) Cc1cc2cc(n1)-c1cnn(C)c1OCCN1CC3CCC(CC3)(C1)n1c(nc3ccc(N4CC[C@H](N(C)C)C4)cc31)NC2=O [Example B28]: 14
12) Cc1cc2cc(n1)-c1cnn(C)c1OCCN1CC3CCC(C3)(C1)n1c(nc3ccc(N4CCC5(CC4)CCN5C)cc31)NC2=O (single isomer, unassigned) [Example B54B]: 2
13) Cc1cc2cc(n1)-c1cnn(C)c1OCCC[C@@H](C)Cn1c(nc3ccc4c(c31)CCN(CCN(C)C)C4)NC2=O [Example B12]: 2.3
14) Cc1cc2cc(n1)-c1cnn(C)c1OCCC[C@@H](C)Cn1c(nc3ccc4c(c31)CCN(C1COC1)C4)NC2=O [Example B13]: 3.8
15) Cc1cc2cc(n1)-c1cnn(C)c1OCCN1CCOCC(C1)n1c(nc3ccccc31)NC2=O (single isomer, unassigned) [Example B7A]: 611
16) Cc1cc2cc(n1)-c1cnn(C)c1OCCN1CC3CCC(C3)(C1)n1c(nc3ccc(N4CCOCC4)cc31)NC2=O (single isomer, unassigned) [Example B10A]: 2.3
17) Cc1cc2cc(n1)-c1cnn(C)c1OCCN1CCOCC(C1)n1c(nc3ccccc31)NC2=O (stereo not shown) [Example B7]: 627
18) Cc1cc2cc(n1)-c1cnn(C)c1OCCN1CC3CCC(C3)(C1)n1c(nc3ccc(N4CC(N5CCOCC5)C4)cc31)NC2=O (single isomer, unassigned) [Example B48B]: 4.5

* * *

# TESTED_ON: EGFR Exon19Del (Homo sapiens, UniProt P00533, DEL746-750)
# Construct: purchased Carna Bio
# Sequence (P00533 with tags, fused parts or gaps DEL746-750 limits assumed): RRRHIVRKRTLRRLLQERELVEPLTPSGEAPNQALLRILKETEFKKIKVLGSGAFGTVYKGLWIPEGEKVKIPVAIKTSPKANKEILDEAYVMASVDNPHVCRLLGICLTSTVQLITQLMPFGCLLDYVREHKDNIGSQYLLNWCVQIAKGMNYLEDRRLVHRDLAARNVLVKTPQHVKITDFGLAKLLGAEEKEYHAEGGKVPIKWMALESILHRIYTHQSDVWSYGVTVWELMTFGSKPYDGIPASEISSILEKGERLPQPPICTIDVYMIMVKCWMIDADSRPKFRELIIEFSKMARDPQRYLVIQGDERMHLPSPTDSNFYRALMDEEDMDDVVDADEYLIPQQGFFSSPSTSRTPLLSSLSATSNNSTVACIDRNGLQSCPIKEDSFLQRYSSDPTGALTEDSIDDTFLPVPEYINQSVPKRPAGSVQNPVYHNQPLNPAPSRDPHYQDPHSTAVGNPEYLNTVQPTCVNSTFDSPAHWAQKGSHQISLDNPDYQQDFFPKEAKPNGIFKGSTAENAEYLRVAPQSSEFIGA
# TEST_PROTOCOL: Inhibition of EGFR Exon19Del biochemical enzymatic activity (HTRF)
# RECORDED_CONDITIONS: EGFR Exon19Del, 1 mM ATP, 1 h at room temperature, read-out: IC50 @Del19
TEST_READOUT: log10(IC50) (log10 of the value in nM)

1) Cc1cc2cc(n1)-c1cnn(C)c1OCCN1CC3CCC(CC3)(C1)n1c(nc3ccc(N4CC[C@H](N(C)C)C4)cc31)NC2=O [Example B28]: 1.36
2) Cc1cc2cc(n1)-c1cnn(C)c1OCCN1CC3CCC(C3)(C1)n1c(nc3ccc(N4CCN(C5CC5)CC4)cc31)NC2=O (single isomer, unassigned) [Example B55B]: 0.63
3) Cc1cc2cc(n1)-c1cnn(C)c1OCCCCCn1c(nc3ccc4c(c31)CN(C1COC1)CC4)NC2=O [Example B18]: 2.97
4) Cc1cc2cc(n1)-c1cnn(C)c1OCCN1CC3CCC(CC3)(C1)n1c(nc3ccc(N4CCC5(CCN(C)CC5)C4)cc31)NC2=O [Example B31]: 1.28
5) CCN1CCN(c2ccc3nc4n(c3c2)C23CCC(CN(CCOc5c(cnn5C)-c5cc(cc(C)n5)C(=O)N4)C2)C3)CC1 (single isomer, unassigned) [Example B56B]: 0.64

* * *

# TESTED_ON: EGFR (C797S L858R) (Homo sapiens, UniProt P00533, C797S/L858R)
# Construct: purchased signalchem
# Sequence (P00533 25-1210 C797S/L858R): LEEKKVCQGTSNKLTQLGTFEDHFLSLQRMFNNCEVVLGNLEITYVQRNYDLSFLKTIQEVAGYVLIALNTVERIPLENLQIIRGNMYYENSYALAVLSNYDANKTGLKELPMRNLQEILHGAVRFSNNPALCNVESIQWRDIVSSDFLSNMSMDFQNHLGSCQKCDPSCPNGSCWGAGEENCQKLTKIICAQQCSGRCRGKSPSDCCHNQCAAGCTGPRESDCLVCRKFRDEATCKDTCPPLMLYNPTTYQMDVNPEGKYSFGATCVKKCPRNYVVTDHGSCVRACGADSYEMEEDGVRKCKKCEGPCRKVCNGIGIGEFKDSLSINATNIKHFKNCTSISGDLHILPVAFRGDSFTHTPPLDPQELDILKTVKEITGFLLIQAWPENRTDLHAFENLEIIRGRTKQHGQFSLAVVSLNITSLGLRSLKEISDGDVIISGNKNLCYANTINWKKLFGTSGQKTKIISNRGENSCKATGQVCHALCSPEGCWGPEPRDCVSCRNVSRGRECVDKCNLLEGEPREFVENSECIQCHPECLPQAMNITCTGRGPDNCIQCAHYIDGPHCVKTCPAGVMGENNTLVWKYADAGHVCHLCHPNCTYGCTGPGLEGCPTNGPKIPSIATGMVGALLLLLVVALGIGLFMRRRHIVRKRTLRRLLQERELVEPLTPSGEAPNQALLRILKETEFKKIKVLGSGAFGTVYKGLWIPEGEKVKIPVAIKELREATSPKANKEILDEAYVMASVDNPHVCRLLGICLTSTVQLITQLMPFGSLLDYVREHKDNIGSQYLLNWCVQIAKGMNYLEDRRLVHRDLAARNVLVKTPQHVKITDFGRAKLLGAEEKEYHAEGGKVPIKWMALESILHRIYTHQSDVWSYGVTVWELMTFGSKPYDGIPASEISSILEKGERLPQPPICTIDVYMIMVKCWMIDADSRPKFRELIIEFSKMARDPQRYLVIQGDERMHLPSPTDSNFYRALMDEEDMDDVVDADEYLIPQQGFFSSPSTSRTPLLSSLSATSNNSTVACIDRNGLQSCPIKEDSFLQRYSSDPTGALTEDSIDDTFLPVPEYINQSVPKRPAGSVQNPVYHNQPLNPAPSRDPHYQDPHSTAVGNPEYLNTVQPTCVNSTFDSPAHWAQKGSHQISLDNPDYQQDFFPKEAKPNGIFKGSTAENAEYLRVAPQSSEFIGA
# TEST_PROTOCOL: Inhibition of EGFR (C797S L858R) biochemical enzymatic activity (HTRF)
# RECORDED_CONDITIONS: EGFR L858-C797S, 1 mM ATP, 1 h, room temperature, read-out: IC50 (nM) @L858-C797S
TEST_READOUT: IC50 (nM)

1) Cc1cc2cc(n1)-c1cnn(C)c1OCCN(CC(F)F)CCn1c(nc3ccccc31)NC2=O [Example B5]: 195
2) CN1CCCC12CN(c1ccc3nc4n(c3c1)C13CCC(CN(CCOc5c(cnn5C)-c5cc(cn(C)c5=O)C(=O)N4)C1)C3)C2 (single isomer, unassigned) [Example A76B]: 27
3) Cn1ncc2c1OCCN1CC3CCC(C3)(C1)n1c(nc3ccc(N4CC(N5CCOCC5)C4)cc31)NC(=O)c1cc-2c(=O)n(C)c1 (single isomer, unassigned) [Example A69B]: 14

* * *

# TESTED_ON: EGFR L858R (Homo sapiens, UniProt P00533, L858R)
# Construct: purchased Carna Bio
# Sequence (P00533 25-1210 L858R): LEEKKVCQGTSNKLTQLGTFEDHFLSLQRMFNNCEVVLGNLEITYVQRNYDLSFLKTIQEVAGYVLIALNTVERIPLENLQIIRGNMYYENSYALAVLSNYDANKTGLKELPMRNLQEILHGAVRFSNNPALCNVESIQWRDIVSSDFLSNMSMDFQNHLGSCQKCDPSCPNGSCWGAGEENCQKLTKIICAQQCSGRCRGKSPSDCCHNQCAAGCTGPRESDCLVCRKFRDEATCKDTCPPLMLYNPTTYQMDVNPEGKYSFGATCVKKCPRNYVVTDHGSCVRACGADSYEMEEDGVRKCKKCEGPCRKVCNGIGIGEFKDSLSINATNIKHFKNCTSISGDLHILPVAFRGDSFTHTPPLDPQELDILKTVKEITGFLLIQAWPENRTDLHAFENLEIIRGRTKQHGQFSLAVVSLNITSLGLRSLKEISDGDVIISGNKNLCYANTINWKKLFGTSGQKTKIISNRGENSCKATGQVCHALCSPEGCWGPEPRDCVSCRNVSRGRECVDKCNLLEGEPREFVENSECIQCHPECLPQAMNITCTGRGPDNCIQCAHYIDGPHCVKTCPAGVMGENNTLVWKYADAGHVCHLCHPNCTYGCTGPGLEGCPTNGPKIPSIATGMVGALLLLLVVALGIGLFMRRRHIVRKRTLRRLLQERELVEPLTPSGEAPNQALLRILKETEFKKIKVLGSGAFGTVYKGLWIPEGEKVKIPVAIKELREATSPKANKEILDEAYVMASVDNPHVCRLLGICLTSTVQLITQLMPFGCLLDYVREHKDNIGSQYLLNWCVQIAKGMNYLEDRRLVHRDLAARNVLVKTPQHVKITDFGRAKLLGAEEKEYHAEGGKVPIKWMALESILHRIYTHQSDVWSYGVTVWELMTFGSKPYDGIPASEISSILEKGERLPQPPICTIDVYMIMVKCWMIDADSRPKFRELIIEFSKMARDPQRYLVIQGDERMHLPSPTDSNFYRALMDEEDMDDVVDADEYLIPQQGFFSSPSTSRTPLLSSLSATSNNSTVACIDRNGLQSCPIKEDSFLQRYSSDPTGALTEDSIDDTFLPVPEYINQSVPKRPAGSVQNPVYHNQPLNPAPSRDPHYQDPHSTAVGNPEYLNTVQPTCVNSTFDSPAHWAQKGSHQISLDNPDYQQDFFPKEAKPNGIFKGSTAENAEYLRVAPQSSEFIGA
# TEST_PROTOCOL: Inhibition of EGFR L858R biochemical enzymatic activity (HTRF)
# RECORDED_CONDITIONS: 1 mM ATP, 1 h at room temperature, read-out: IC50 @L858R
TEST_READOUT: IC50

1. Cc1cc2cc(n1)-c1cnn(C)c1OCCN1CC3CCC(C3)(C1)n1c(nc3ccc(N4CC5CN(C)CC5C4)cc31)NC2=O (single isomer, unassigned) [Example B43B]: 0.036 µM
2. Cc1cc2cc(n1)-c1cnn(C)c1OCCN1CC3CCC(C3)(C1)n1c(nc3ccc(N(C)CCN(C)C)cc31)NC2=O (single isomer, unassigned) [Example B47A]: > 5 µM
3. Cc1cc2cc(n1)-c1cnn(C)c1OCCN1CCOCC(C1)n1c(nc3ccccc31)NC2=O (single isomer, unassigned) [Example B7A]: > 5 µM

* * *

# TESTED_ON: EGFR L858R (Homo sapiens, UniProt P00533, L858R)
# Construct: purchased Carna Bio
# TEST_PROTOCOL: Inhibition of EGFR L858R biochemical enzymatic activity (HTRF)
# RECORDED_CONDITIONS: IC50 @L858R, 1 mM ATP, 1 h at room temperature
TEST_READOUT: IC50

1) Cc1cc2cc(n1)-c1cnn(C)c1OCCCCCn1c(nc3ccc4c(c31)CCN(CCN(C)C)C4)NC2=O: > 5000 nM
2) Cc1cc2cc(n1)-c1cnn(C)c1OCCN1CC3CCC(C3)(C1)n1c(nc3ccc(N4CCC(N(C)C)CC4)cc31)NC2=O (single isomer, unassigned) [Example B40A]: > 5000 nM
3) Cc1cc2cc(n1)-c1cnn(C)c1OCCN1CC3CCC(CC3)(C1)n1c(nc3ccc(N4CCC(N(C)C)CC4)cc31)NC2=O: 67 nM
4) Cc1cc2cc(n1)-c1cnn(C)c1OCCN1CC3CCC(C3)(C1)n1c(nc3ccc(N4CCC(N(C)C)CC4)cc31)NC2=O (single isomer, unassigned) [Example B40B]: 15 nM

* * *

# System: A-431
# TEST_PROTOCOL: Cell proliferation assay, A-431 cells (GI50, Table 6)
# Format: cell-based
# RECORDED_CONDITIONS: Homo sapiens, A-431, A-431 cells
Listing of recorded GI50 by entry.
TEST_READOUT: GI50 (nM)

1. CN(C)C1CCN(c2ccc3nc4n(c3c2)C23CCC(CC2)CN(CCOc2c(cnn2C)-c2cc(cn(C)c2=O)C(=O)N4)C3)CC1 [Example A119]: 1070
2. Cc1cc2cc(n1)-c1cnn(C)c1OCCN1CC3CCC(CC3)(C1)n1c(nc3ccc(N4CCN(C(C)C)CC4)cc31)NC2=O [Example B39]: 7730
3. Cc1cc2cc(n1)-c1cnn(C)c1OCCN1CC3CCC(C3)(C1)n1c(nc3ccc(N4CCC5(CCN(C)CC5)C4)cc31)NC2=O (single isomer, unassigned) [Example B51B]: 3030
4. CN1CC2CN(c3ccc4nc5n(c4c3)C34CCC(CC3)CN(CCOc3c(cnn3C)-c3cc(cn(C)c3=O)C(=O)N5)C4)CC2C1 (stereo not drawn) [Example A126]: 4090
5. Cc1cc2cc(n1)-c1cnn(C3CC3)c1OCCN(CC(F)(F)F)CCn1c(nc3ccccc31)NC2=O [Example B6]: 2830
6. Cc1cc2cc(n1)-c1cnn(C)c1OCCN1CC3CCC(CC3)(C1)n1c(nc3ccc(N4CCC(N(C)C)CC4)cc31)NC2=O [Example B27]: 3600
7. Cn1ncc2c1OCCN1CC3CCC(CC3)(C1)n1c(nc3cc(F)ccc31)NC(=O)c1cc-2c(=O)n(C)c1 [Example A116]: 3440
8. Cc1cc2cc(n1)-c1cnn(C)c1OCCN1CC3CCC(CC3)(C1)n1c(nc3ccc(N4CCN(C)CC4)cc31)NC2=O [Example B3]: 2020
9. Cc1cc2cc(n1)-c1cnn(C)c1OCCN1CC3CCC(C3)(C1)n1c(nc3ccc(N4CC[C@H](N(C)C)C4)cc31)NC2=O (single isomer, unassigned) [Example B41B]: 1790
10. Cc1cc2cc(n1)-c1cnn(C)c1OCCC[C@@H](C)Cn1c(nc3ccc4c(c31)CCN(C1COC1)C4)NC2=O [Example B13]: 507
11. Cc1cc2cc(n1)-c1cnn(C)c1OCCN1CC3CCC(CC3)(C1)n1c(nc3ccc(N4CCC5(CC4)CCN5C)cc31)NC2=O [Example B30]: 3560
12. Cc1cc2cc(n1)-c1cnn(C)c1OCCN1CC3CCC(C3)(C1)n1c(nc3ccc(N(C)CCN(C)C)cc31)NC2=O (single isomer, unassigned) [Example B47B]: 378
13. Cc1cc2cc(n1)-c1cnn(C)c1OCCN1CC3CCC(C3)(C1)n1c(nc3ccc(N(C)CCCN(C)C)cc31)NC2=O (single isomer, unassigned) [Example B45B]: 1680
14. Cc1cc2cc(n1)-c1cnn(C)c1OCCN1CC3CCC(CC3)(C1)n1c(nc3ccc(N4CCOCC4)cc31)NC2=O [Example B2]: 3160
15. Cn1ncc2c1OCCN1CC3CCC(C3)(C1)n1c(nc3cc(F)ccc31)NC(=O)c1cc-2c(=O)n(C)c1 (stereo not drawn) [Example A117B]: 1510
